The reported numbers originate from patent US11274124B2.

Tested on: MES SA (uterine sarcoma cell line)
Assay procedure: In vitro cytotoxicity assay (CellTiter-Glo, 72 hours), MES SA
Assay type: cell-based
Conditions: Homo sapiens, MES-SA, 72 h, read-out: MES SA, IC50 Value in nM
Recorded measurements of IC50, one per entry
Express the result in nM but write the number alone.

// below: answered compounds
Molecule	IC50 / nM
COC(=O)[C@@H](CO)C[C@H](Cc1ccccc1)NC(=O)c1csc([C@@H](C[C@H](C(C)C)N(C)C(=O)[C@@H](NC(=O)[C@H]2CCCCN2C)C(C)C)OC(C)=O)n1	0.093
COC(=O)[C@@H](C)C[C@H](Cc1ccccc1)NC(=O)c1nc([C@@H](C[C@H](C(C)C)N(C)C(=O)[C@@H](NC(=O)[C@H]2C[C@H](O)CCN2C)C(C)C)OC(C)=O)sc1C(C)C	5.32

From here, focus on the item given below.
Challenge: Which IC50 is reported for this compound? CC[C@H](NC(=O)[C@H]1CCCCN1C)C(=O)N(C)[C@H](C[C@@H](OC(C)=O)c1nc(C(=O)N[C@@H](Cc2ccccc2)C[C@H](C)C(=O)O)cs1)C(C)C
Response given: 0.46

----------
System: MES SA (uterine sarcoma cell line)
Assay procedure: In vitro cytotoxicity assay (CellTiter-Glo, 72 hours), MES SA
Format: cell-based
Conditions: Homo sapiens, MES-SA, 72 h, read-out: MES SA, IC50
Measurement kind: IC50
Phrase the answer as number then unit, nothing more needed.

Molecule	IC50
COC(=O)[C@@H](CO)C[C@H](Cc1ccccc1)NC(=O)c1csc([C@@H](C[C@H](C(C)C)N(C)C(=O)[C@@H](NC(=O)[C@H]2CCCCN2C)C(C)C)OC(C)=O)n1	0.093 nM
CCN[C@@H](C[C@H](Cc1ccccc1)NC(=O)c1csc([C@@H](C[C@H](C(C)C)N(C)C(=O)[C@@H](NC(=O)[C@H]2CCCCN2C)C(C)C)OC(C)=O)n1)C(=O)OC	0.14 nM
CCOC(=O)[C@@H](C)C[C@H](Cc1ccccc1)NC(=O)c1csc([C@@H](C[C@H](C(C)C)N(C)C(=O)[C@H](CC)NC(=O)[C@H]2CCCCN2C)OC(C)=O)n1	0.15 nM
CCC(C)(C)[C@H](NC(=O)[C@H]1CCCCN1C)C(=O)N(C)[C@H](C[C@@H](OC(C)=O)c1nc(C(=O)N[C@@H](Cc2ccccc2)C[C@H](C)C(=O)O)cs1)C(C)C	0.36 nM

From here, focus on the item given below.
Challenge: Test system MES SA (uterine sarcoma cell line); read-out IC50; what value for CCOC(=O)[C@@H](C)C[C@H](Cc1ccccc1)NC(=O)c1csc([C@@H](C[C@H](C(C)C)N(C)C(=O)[C@@H](NC(=O)[C@H]2CCCCN2C)C(C)(C)C)OC(C)=O)n1 ?
Response given: 0.12 nM

----------
Test system: MES SA (uterine sarcoma cell line)
Assay procedure: In vitro cytotoxicity assay (CellTiter-Glo, 72 hours), MES SA
Format: cell-based
Conditions: Homo sapiens, MES-SA, 72 h, read-out: MES SA, IC50 Value in nM
Measurement kind: IC50 (nM)
Express the result in nM but write the number alone.

// below: answered compounds
Compound	Result unit	Value measured
CCOC(=O)C(C)CC(Cc1ccccc1)NC(=O)c1nc([C@@H](CC(C(C)C)N(C)C(=O)[C@@H](NC(=O)[C@H]2CCCCN2C)C(C)C)OC(C)=O)sc1CCO (stereo in doubt)	nM	0.1
COC(=O)CC[C@H](Cc1ccccc1)NC(=O)c1csc([C@@H](C[C@H](C(C)C)N(C)C(=O)[C@@H](NC(=O)[C@H]2CCCCN2C)C(C)C)OC(C)=O)n1	nM	2.94

From here, focus on the item given below.
Challenge: Which IC50 is reported for this compound? CC(C)[C@H](NC(=O)[C@H]1CCCCN1C)C(=O)N(C)[C@H](C[C@@H](O)c1nc(C(=O)N[C@@H](Cc2ccccc2)C[C@H](C)C(=O)O)cs1)C(C)C
Response given: 14

----------
Recorded measurements of IC50, one per entry
System: MES SA (uterine sarcoma cell line)
Assay procedure: In vitro cytotoxicity assay (CellTiter-Glo, 72 hours), MES SA
Type: cell-based
Conditions: Homo sapiens, MES-SA, 72 h, read-out: MES SA, IC50 Value in nM

// below: answered compounds
Molecule	Assay target	IC50
CC(=O)O[C@H](C[C@H](C(C)C)N(C)C(=O)[C@H](C)NC(=O)[C@H]1CCCCN1C)c1nc(C(=O)N[C@@H](Cc2ccccc2)C[C@H](C)C(=O)O)cs1	MES SA (uterine sarcoma cell line)	> 1000 nM
COC(=O)[C@@H](C)C[C@H](Cc1ccc(F)cc1)NC(=O)c1csc([C@@H](C[C@H](C(C)C)N(C)C(=O)[C@@H](NC(=O)[C@H]2CCCCN2C)C2CC2)OC(C)=O)n1	MES SA (uterine sarcoma cell line)	> 1000 nM

From here, focus on the item given below.
Challenge: Which IC50 is reported for this compound? CCCCN1CCCC[C@@H]1C(=O)N[C@H](C(=O)N(C)[C@H](C[C@@H](OC(C)=O)c1nc(C(=O)N[C@@H](Cc2cn(C)c3ccccc23)C[C@H](C)C(=O)OC)cs1)C(C)C)[C@@H](C)CC
Response given: > 1000 nM

----------
Tested on: MES SA (uterine sarcoma cell line)
Assay procedure: In vitro cytotoxicity assay (CellTiter-Glo, 72 hours), MES SA
Assay type: cell-based
Conditions: Homo sapiens, MES-SA, 72 h, read-out: MES SA, IC50 Value in nM
Recorded measurements of IC50, one per entry

// below: answered compounds
Compound	Measurement kind	Value measured
CC[C@H](C)[C@H](NC(=O)[C@H]1CCCCN1C)C(=O)N(C)[C@H](CC(=O)c1nc(C(=O)N[C@@H](Cc2ccccc2)C[C@H](C)C(=O)O)cs1)C(C)C [Tb59]	IC50	> 1000 nM
COC(=O)[C@@H](C)C[C@H](Cc1ccccc1)NC(=O)c1csc([C@@H](C[C@H](C(C)C)N(C)C(=O)[C@H](C)NC(=O)[C@H]2CCCN2C)OC(C)=O)n1 [Tb90]	IC50	> 1000 nM

From here, focus on the item given below.
Challenge: Which IC50 is reported for this compound? CC(C)[C@@H](C[C@@H](O)c1nc(C(=O)N[C@@H](Cc2ccccc2)C[C@H](C)C(=O)O)cs1)N(C)C(=O)[C@H](CC(F)(F)F)NC(=O)[C@H]1CCCCN1C [Tb83]
Response given: > 1000 nM
